Experiment: protein stability index of a GFP-peptide fusion (GPS, HEK-293T) (PSI 1-6); higher = more stable;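 further: 24-mer peptide tiles fused after GFP, lentivirally expressed, FACS-sorted into six equal bins by GFP/DsRed ratio, decoded by Illumina sequencing, PSI is the read-weighted mean bin number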
Details: treatment: MLN4924 1 uM, 8 h; c terminus: a fixed tail appended
Class condition met: protein stability index at least 4. Class condition not met: protein stability index below 4.

Could you please find out whether AATDITGFGILGHSQNLAKQQRNE [SEPHS2] has protein stability index that meets 4 or exceeds it?
condition met

Hello, I need to know if VEMDIYTALKKWMFLQLVPSWNGS [GMCL1] has measured protein stability index not below 4. Thanks!
condition not met

Quick check: does RARRTEISKNSEKKMESEEDSNWE [GOLPH3L] have protein stability index greater than or equal to 4?
condition met

Kindly determine if protein stability index recorded for ITSETTSTTTTTHITKTVKGGISE [EPB41L3] is above or exactly 4.
condition met

Decide: protein stability index of DKLRALKSQRQPRTSPSCAFRSDD [CDC14A] >= 4?
condition met

Determine whether measured protein stability index meets or exceeds 4 for YGAVELSGAGRRKNATRETTSTLK [IRX6]
condition met

Quick check: does LCKEMVPLAEQTPLTLQSQPKEPQ [ZSCAN9] have protein stability index greater than or equal to 4?
condition met

# check: protein stability index of LSVDPEEEREEGPPRIPQADQWKS [RHOBTB1] is greater than or equal to 4
condition met

Please tell me: is the sequence SFMLQDRAKGLLGTTVTFDDLMGI [FEM1C] at or over 4 in terms of protein stability index?
condition not met

Check the entry LNVGNERYVFEAVIRWIAHDTEIR [GAN] : does protein stability index equal or exceed 4?
condition not met

Does the reported protein stability index for KAAALPPFPLGASAQNGLASSLPA [PLAGL1] fall at or above the 4 mark?
condition not met

Check this sequence for protein stability index at or above 4: DETHPYTVTSVSCCHGNTLLAVRS [NEK8]
condition not met

Decide: protein stability index of GTWVTFGGQITDEMAEQLMTLAYD [KCNAB2] >= 4?
condition not met

Is protein stability index for KTAGKENHFDMHRVGKWHQDFPVK [ZNF75A] at or above 4?
condition not met

# check: protein stability index of GQTYVDAGYEVDKIAQNLDFVNLM [CHIT1] is greater than or equal to 4
condition not met

Textbook exercise: given the entry DSEQVPQALRRLRPRTRKVKSVSP [NCF4] , state whether its protein stability index is greater than or equal to 4.
condition met

Exam item: decide whether the reported protein stability index for VVPVLVFPPDLVFRADQRSGPRQL [MOSPD3] is at least 4.
condition not met

Textbook exercise: given the entry SLAQGPDAATTDELSSLGSDSEAN [TBC1D10A] , state whether its protein stability index is greater than or equal to 4.
condition met

Dear colleague, could you confirm whether SIKKKFLKRKGKTDSPWIKPARKR [EHMT1] has protein stability index at or above 4?
condition not met

I'd appreciate it if you could say whether AIRRFQSMPVRLLGHSPVLRNITN [CDC25B] has protein stability index at least equal to 4.
condition not met

Determine whether this sequence has protein stability index no lower than 4: IREEGRCSSSDDDTDVDMEGLRRR [PBXIP1]
condition met

Kindly determine if protein stability index recorded for HGCEYSCVNMDRSFACQCPEGHVL [MATN2] is above or exactly 4.
condition not met

Decide: is the reported value of protein stability index for CEKYLPGYYSEKLEAIQLDGEILF [TBC1D10A] equal to or greater than 4?
condition not met

Check the entry KSMGLKKKAFVWARNIGFKVNSKK [ACSBG2] : does protein stability index equal or exceed 4?
condition not met

Does DHEDNDKMNDSEGMDPERLKAFNM [NOL4L] have a reported protein stability index of at least 4?
condition met

Does the reported protein stability index for CPPPPGPAAAPEGDWARLLEQMGA [ZBED3] fall at or above the 4 mark?
condition not met

Textbook exercise: given the entry NCSIGPNVSLGPGVVVEDGVCIRR [GMPPB] , state whether its protein stability index is greater than or equal to 4.
condition met

Quick check: does IHLREDLVQDQDLEAIRKQDLVEL [ZER1] have protein stability index greater than or equal to 4?
condition met

Decide: protein stability index of LEAQPYEAVFLRAVKLYNSGDFRS [P3H4] >= 4?
condition not met

Answer whether protein stability index of RKLNSRLFVIRGQPADVFPRLFKE [CRY1] is greater than or equal to 4.
condition not met

Hello, I need to know if WFFLQSELKKLKNLEGNELQRHAD [FUT8] has measured protein stability index not below 4. Thanks!
condition not met

Given the entry EKTQKNQCWKSLFIDTYSDVGRYI [FBXO3] , answer whether its protein stability index meets or surpasses 4.
condition not met

Given IAKNLVEKGILTTEKQNFLLFDMT [GOLPH3L] , state whether its protein stability index is at least 4.
condition not met

Does protein stability index meet or surpass 4 for MIIVAISPKYKQDVEGAESQLDED [TRAF3IP2] ?
condition not met

Exam item: decide whether the reported protein stability index for YKKIYFCHSCQLYLPSTEFSVSST [IQUB] is at least 4.
condition not met

Please check the record IEKEVFPIMAKEGQLYAMELQGFW [GMPPB] and state if its protein stability index is at or above 4.
condition not met

Could you verify whether the entry SAIYKWITDNFCYFRHADPTWQNS [FOXJ1] shows protein stability index of no less than 4?
condition not met
